System: HepG2 cells
Assay: HepG2 cytotoxicity assay
Settings: unified HepG2 value across the three screens
measure: Unified cytotox (µM)

>>> observed_value("COc1ccc(C=NNc2nc(O)cc(-c3ccccc3)n2)cc1OC [TCMDC-124217]")
58.21
>>> observed_value("COc1ccc(-c2ccc([N+](=O)[O-])cc2C(=O)NCC(C)Oc2ccc(C(F)(F)F)cc2)cc1 (stereo not drawn) [TCMDC-132304]")
100.00
>>> observed_value("O=C(Nc1ccc(OC2CCN(Cc3ccc(F)cc3)C2)c(Cl)c1)c1cccs1.O=C(O)C(F)(F)F (stereo not drawn) [TCMDC-133757]")
25.12
>>> observed_value("COc1cc(F)c2ncc(C#N)c(CCN3CCC(NCc4ccc5c(c4)OCCO5)CC3)c2c1.Cl [TCMDC-135367]")
38.90
>>> observed_value("Cc1ccc(Cn2c(N3CCC(C(=O)NCc4ccccn4)CC3)nc3ccccc32)cc1 [TCMDC-125442]")
69.18
>>> observed_value("C=CCc1cc(OC)ccc1OCCCOc1c(C)nc(N)nc1N.Cl [TCMDC-131358]")
0.26

The origin of these recorded values is paper PMC6753678.
